Biological target: D2R (Homo sapiens)
Construct: expressed in transfected cells; host or cells: D2R carrier cells (not described here)
Assay: HTRF Ki determination at D2R
Type: binding
Conditions: Ki assumed ≥100 µM where n.d.
measured_metric: Selectivity D1R/D2R (Ki fold-difference)

compound=COc1ccccc1N1CCN(CCCCNC(=O)c2ccc(Cl)cc2)CC1 result_number=3.91
compound=O=C(CCN1CCN(c2ccccc2F)CC1)Nc1cccc(F)c1 result_number=5.77
compound=O[C@H](CNCCNc1ccc(C(F)(F)F)cn1)CSc1ccc(F)cc1 result_number=3.00
compound=NC(=O)c1ccccc1OCCCN1CCN(c2ccccc2)CC1 result_number=28.6
compound=CCN(CCC(=O)Nc1cccc(OC)c1)Cc1ccccc1 result_number=4.28
compound="CN1CCN(C2Cc3ccc(O)cc3Sc3ccc(Cl)cc32)CC1 (stereo not shown)" result_number=1.95

----------
Normalized Decrease in Fluorescence (NDF) ± SD, D3R values for the compounds below.
Target: D3R (Homo sapiens, UniProt P35462)
Sequence (P35462 whole entry): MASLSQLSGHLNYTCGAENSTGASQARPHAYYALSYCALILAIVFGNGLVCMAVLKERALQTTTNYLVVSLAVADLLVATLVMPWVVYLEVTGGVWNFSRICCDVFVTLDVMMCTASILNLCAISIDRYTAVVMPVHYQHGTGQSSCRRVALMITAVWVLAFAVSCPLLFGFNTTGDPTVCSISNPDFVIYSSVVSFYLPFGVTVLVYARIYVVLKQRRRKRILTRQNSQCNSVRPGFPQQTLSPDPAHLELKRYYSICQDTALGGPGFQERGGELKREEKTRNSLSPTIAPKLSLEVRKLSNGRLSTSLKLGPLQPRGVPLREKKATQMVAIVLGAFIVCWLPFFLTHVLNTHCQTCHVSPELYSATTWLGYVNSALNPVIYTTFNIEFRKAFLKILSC
Assay: HTRF competitive binding screening (NDF) at D3R carrier cells
Details: 10 µM, n = 4, fluorescence decrease normalized to the control
measured_metric: Normalized Decrease in Fluorescence (NDF) ± SD, D3R

compound="NC(=O)c1ccccc1OCCCN1CCN(c2ccccc2)CC1 [Compound 9]" result="3.97 ± 0.78"
compound="CN1CCc2cccc3c2[C@H]1Cc1ccc(O)c(O)c1-3 [Compound 1, apomorphine, reference compound]" result="3.82 ± 1.32"
compound="CN1CCN(C2Cc3ccc(O)cc3Sc3ccc(Cl)cc32)CC1 (stereo not shown) [Compound 2]" result="4.16 ± 1.08"
compound="O=C(CCN1CCN(c2ccccc2F)CC1)Nc1cccc(F)c1 [Compound 6]" result="4.21 ± 0.79"
compound="NS(=O)(=O)c1ccc(CCNCc2ccc(-c3cc(Cl)ccc3Cl)o2)cc1 [Compound 3]" result="3.96 ± 1.10"
compound="Oc1cccc(C(O)CNCc2cccc(Cl)c2Cl)c1 (stereo not shown) [Compound 4]" result="2.75 ± 0.61"
compound="COc1ccccc1N1CCN(CCCCNC(=O)c2ccc(Cl)cc2)CC1 [Compound 10]" result="4.09 ± 1.07"
compound="CCN(CCC(=O)Nc1cccc(OC)c1)Cc1ccccc1 [Compound 5]" result="2.65 ± 0.64"
compound="O[C@H](CNCCNc1ccc(C(F)(F)F)cn1)CSc1ccc(F)cc1 [Compound 7]" result="3.79 ± 0.70"
compound="COc1cc(CC[C@H](C)NCc2ccccc2)ccc1O [Compound 8]" result="2.63 ± 0.52"

----------
Biological target: D3R (Homo sapiens)
Assay: HTRF Ki determination at D3R
Format: binding
Details: n = 6, ± SD
log10 Ki values for the compounds below.
measured_metric: log10 Ki (log10 of the value in nM)

compound="Oc1cccc(C(O)CNCc2cccc(Cl)c2Cl)c1 (stereo not drawn)" experimental_system="D3R (Homo sapiens)" measured_metric="log10 Ki" result_number=3.57
compound=CCN(CCC(=O)Nc1cccc(OC)c1)Cc1ccccc1 experimental_system="D3R (Homo sapiens)" measured_metric="log10 Ki" result_number=3.35
compound=COc1ccccc1N1CCN(CCCCNC(=O)c2ccc(Cl)cc2)CC1 experimental_system="D3R (Homo sapiens)" measured_metric="log10 Ki" result_number=0.30
compound=COc1cc(CC[C@H](C)NCc2ccccc2)ccc1O experimental_system="D3R (Homo sapiens)" measured_metric="log10 Ki" result_number=3.37
compound=O[C@H](CNCCNc1ccc(C(F)(F)F)cn1)CSc1ccc(F)cc1 experimental_system="D3R (Homo sapiens)" measured_metric="log10 Ki" result_number=2.83
compound=NC(=O)c1ccccc1OCCCN1CCN(c2ccccc2)CC1 experimental_system="D3R (Homo sapiens)" measured_metric="log10 Ki" result_number=1.38
compound="CN1CCN(C2Cc3ccc(O)cc3Sc3ccc(Cl)cc32)CC1 (stereo not drawn)" experimental_system="D3R (Homo sapiens)" measured_metric="log10 Ki" result_number=0.48
compound=NS(=O)(=O)c1ccc(CCNCc2ccc(-c3cc(Cl)ccc3Cl)o2)cc1 experimental_system="D3R (Homo sapiens)" measured_metric="log10 Ki" result_number=2.58
compound=O=C(CCN1CCN(c2ccccc2F)CC1)Nc1cccc(F)c1 experimental_system="D3R (Homo sapiens)" measured_metric="log10 Ki" result_number=2.57

----------
Biological target: D1R (Homo sapiens)
Sequence (P21728 whole entry): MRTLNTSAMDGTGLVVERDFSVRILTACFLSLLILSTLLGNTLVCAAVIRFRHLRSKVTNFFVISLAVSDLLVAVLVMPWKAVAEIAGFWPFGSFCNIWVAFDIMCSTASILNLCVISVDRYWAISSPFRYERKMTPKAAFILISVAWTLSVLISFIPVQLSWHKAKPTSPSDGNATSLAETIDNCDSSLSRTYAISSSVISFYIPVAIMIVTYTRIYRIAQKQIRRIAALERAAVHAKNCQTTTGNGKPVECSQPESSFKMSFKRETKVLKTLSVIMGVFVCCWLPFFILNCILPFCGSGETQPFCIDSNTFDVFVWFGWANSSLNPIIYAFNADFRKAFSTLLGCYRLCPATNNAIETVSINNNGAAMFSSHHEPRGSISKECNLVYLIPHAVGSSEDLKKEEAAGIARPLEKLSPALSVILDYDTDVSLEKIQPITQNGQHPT
Assay: HTRF competitive binding screening (NDF) at D1R carrier cells
Conditions: 10 µM, n = 4, fluorescence decrease normalized to the control
Just a reminder that ties go to f: only Normalized Decrease in Fluorescence (NDF) ± SD, D1R strictly below 2 counts as t.

molecule=NC(=O)c1ccccc1OCCCN1CCN(c2ccccc2)CC1 group_label=t
molecule="CN1CCN(C2Cc3ccc(O)cc3Sc3ccc(Cl)cc32)CC1 (stereo not shown)" group_label=f
molecule=O[C@H](CNCCNc1ccc(C(F)(F)F)cn1)CSc1ccc(F)cc1 group_label=t
molecule="CN1CCc2cccc3c2[C@H]1Cc1ccc(O)c(O)c1-3 [Compound 1, apomorphine, reference compound]" group_label=f
molecule=O=C(CCN1CCN(c2ccccc2F)CC1)Nc1cccc(F)c1 group_label=f
molecule=CCN(CCC(=O)Nc1cccc(OC)c1)Cc1ccccc1 group_label=t
molecule=COc1cc(CC[C@H](C)NCc2ccccc2)ccc1O group_label=t
molecule=NS(=O)(=O)c1ccc(CCNCc2ccc(-c3cc(Cl)ccc3Cl)o2)cc1 group_label=t
molecule=COc1ccccc1N1CCN(CCCCNC(=O)c2ccc(Cl)cc2)CC1 group_label=f
molecule="Oc1cccc(C(O)CNCc2cccc(Cl)c2Cl)c1 (stereo not shown)" group_label=t

----------
Target: D3R (Homo sapiens)
Assay: HTRF Ki determination at D3R
Type: binding
pKi: −log10 of the molar value.
measured_metric: pKi

sample_smiles=COc1ccccc1N1CCN(CCCCNC(=O)c2ccc(Cl)cc2)CC1 result_number=8.64

----------
pKi: −log10 of the molar value.
The following are reported pKi results, target or system D1R (Homo sapiens).
measured_metric: pKi

molecule=COc1ccccc1N1CCN(CCCCNC(=O)c2ccc(Cl)cc2)CC1 experimental_system="D1R (Homo sapiens)" result_number=5.62
molecule="CN1CCN(C2Cc3ccc(O)cc3Sc3ccc(Cl)cc32)CC1 (centres unmarked)" experimental_system="D1R (Homo sapiens)" result_number=8.05

----------
Target: D3R (Homo sapiens)
Assay: HTRF Ki determination at D3R
Format: binding
Details: Ki assumed ≥100 µM where n.d.
measured_metric: Selectivity D1R/D3R (Ki fold-difference)

molecule=CCN(CCC(=O)Nc1cccc(OC)c1)Cc1ccccc1 measured_metric="Selectivity D1R/D3R (Ki fold-difference)" result_number=20.8
molecule=COc1ccccc1N1CCN(CCCCNC(=O)c2ccc(Cl)cc2)CC1 measured_metric="Selectivity D1R/D3R (Ki fold-difference)" result_number=1031.4
molecule=O=C(CCN1CCN(c2ccccc2F)CC1)Nc1cccc(F)c1 measured_metric="Selectivity D1R/D3R (Ki fold-difference)" result_number=20.7
molecule=NC(=O)c1ccccc1OCCCN1CCN(c2ccccc2)CC1 measured_metric="Selectivity D1R/D3R (Ki fold-difference)" result_number=395.1
molecule=O[C@H](CNCCNc1ccc(C(F)(F)F)cn1)CSc1ccc(F)cc1 measured_metric="Selectivity D1R/D3R (Ki fold-difference)" result_number=12.3
molecule="CN1CCN(C2Cc3ccc(O)cc3Sc3ccc(Cl)cc32)CC1 (centres unmarked)" measured_metric="Selectivity D1R/D3R (Ki fold-difference)" result_number=3.23

----------
Target: D2R (Homo sapiens, UniProt P14416)
Construct: expressed in transfected cells; host or cells: D2R carrier cells (not described here)
Sequence (P14416 whole entry): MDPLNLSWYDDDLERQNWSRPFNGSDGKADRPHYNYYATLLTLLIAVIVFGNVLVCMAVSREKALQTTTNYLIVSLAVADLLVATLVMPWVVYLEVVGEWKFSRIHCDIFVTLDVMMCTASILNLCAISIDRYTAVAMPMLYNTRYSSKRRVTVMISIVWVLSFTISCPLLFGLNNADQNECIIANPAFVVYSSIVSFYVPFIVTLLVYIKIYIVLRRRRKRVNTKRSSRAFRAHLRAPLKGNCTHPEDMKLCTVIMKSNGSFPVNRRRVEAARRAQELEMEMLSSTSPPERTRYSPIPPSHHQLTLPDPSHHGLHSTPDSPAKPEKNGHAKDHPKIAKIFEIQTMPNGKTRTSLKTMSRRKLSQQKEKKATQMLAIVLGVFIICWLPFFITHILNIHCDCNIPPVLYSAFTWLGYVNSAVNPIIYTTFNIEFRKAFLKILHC
Test: HTRF Ki determination at D2R
Type: binding
Details: n = 6, ± SD; n.d. = not determinable (highest concentration 100 µM)
pKi: −log10 of the molar value.
measured_metric: pKi

sample_smiles=COc1ccccc1N1CCN(CCCCNC(=O)c2ccc(Cl)cc2)CC1 result_number=6.21

----------
Biological target: D3R (Homo sapiens)
Assay: HTRF Ki determination at D3R
Format: binding
Conditions: Ki assumed ≥100 µM where n.d.
measured_metric: Selectivity D2R/D3R (Ki fold-difference)

compound=NS(=O)(=O)c1ccc(CCNCc2ccc(-c3cc(Cl)ccc3Cl)o2)cc1 result_number=12.2
compound=O[C@H](CNCCNc1ccc(C(F)(F)F)cn1)CSc1ccc(F)cc1 result_number=4.11
compound=NC(=O)c1ccccc1OCCCN1CCN(c2ccccc2)CC1 result_number=13.8
compound="CN1CCN(C2Cc3ccc(O)cc3Sc3ccc(Cl)cc32)CC1 (stereo not drawn)" result_number=1.66
compound=O=C(CCN1CCN(c2ccccc2F)CC1)Nc1cccc(F)c1 result_number=3.56
compound=CCN(CCC(=O)Nc1cccc(OC)c1)Cc1ccccc1 result_number=4.86
compound=COc1ccccc1N1CCN(CCCCNC(=O)c2ccc(Cl)cc2)CC1 result_number=263.7
